system: NCI-H23 lung; test: NCI tumour cell line growth inhibition, 48 h
Label N if TGI falls below 30 µM; label Y in every other case.

In [3]: df
Out[3]:
                                    compound  assigned_class
 0  CN(C)CCN1C(=O)N(CCN(C)C)c2c3cc(O)ccc3nc3c([N+](=O)[O-])ccc1c23               Y
 1            COC(=O)Cc1cc(=O)oc2c1C(=O)CCC2               Y
 2  COc1ccc2c(c1)CCC(CN1CCN(CCOC(c3ccccc3)c3ccccc3)CC1)C2O (stereo unspecified)               N
 3                          NC1(C(=O)O)CSSC1               N
 4   Cc1ccc2nc(Nc3ccccc3C)c(Nc3ccccc3C)nc2c1               Y
 5  CCCC/C=C1\CCC(CN2CCCC2)C1=O (stereo unspecified)               Y
 6  O=c1ccn([C@@H]2C=C(CO)[C@@H](O)[C@H]2O)c(=O)[nH]1               Y
 7  C=C1c2ccccc2N(S(=O)(=O)c2ccc(C)cc2)C12CCCCC2               Y
 8  CCOc1cccc(/C=N/NC(=O)Cc2ccc(Nc3ccnc(C(F)(F)F)c3)cc2)c1O               Y
 9                 O=C(O)CCSc1ncnc2nc[nH]c12               Y
10  COc1ccc(-c2nn(-c3cccc(Cl)c3)cc2-c2cc(-c3cccs3)no2)cc1               N

---

Below: a set of entries, each annotated with reported TGI.
tested on: SK-MEL-2 melanoma; assay: NCI tumour cell line growth inhibition, 48 h

compound	value_qualifier	TGI / µM
C=C[C@@]1(C)CC(=O)[C@]2(O)[C@@]3(C)[C@@H](O)CCC(C)(C)[C@@H]3[C@H](O)[C@@H](OC(C)=O)[C@@]2(C)O1	>	100
O=C(O)C(O)c1ccc(F)cc1 (stereo unspecified)	>	100
Nc1ccc2c(SCC(=O)Nc3ccccc3-c3ccccc3NC(=O)CSc3c4ccccc4nc4cc(N)ccc34)c3ccccc3nc2c1	=	68
Cc1cc2c(-c3nc4ccccn4c3NC34CC5CC(CC(C5)C3)C4)c(O)c(O)cc2c(O)c1-c1c(C)cc2c(-c3nc4ccccn4c3NC34CC5CC(CC(C5)C3)C4)c(O)c(O)cc2c1O	=	6.25
O=c1c2ccccc2c(=O)c2c1sc1c(=O)c3ccc(O)cc3c(=O)c12	=	3.88
O=c1ncccn1C1OC(CO)C(O)C1F (stereo unspecified)	>	100

---

In this section, each of the molecules is paired with its reported TGI.
tested on: RPMI-8226 leukemia; test: NCI tumour cell line growth inhibition, 48 h
attribute_measured: TGI

molecule	observed
CC(=O)OC1COC(N2c3ccccc3[C@@H]3CCc4c([nH]c5ccccc45)[C@@H]32)C(OC(C)=O)C1OC(C)=O (mixture of isomers)	> 100 µM
Cn1c(=O)c2[nH]c(Nc3cccc(Cl)c3)nc2n(C)c1=O	> 10 µM
O=C1c2cccnc2C(=O)c2c1nc1ccccc1c2-c1ccc2c3c(nc4ccccc42)C(=O)c2cccnc2-c13	7.14 µM
NC1(C(=O)O)CSSC1	50.8 µM
COC(=O)Cc1cc(=O)oc2c1C(=O)CCC2	> 100 µM
NC(=O)c1c(NC(=O)c2cccc(C(F)(F)F)c2)sc2c1CCC(=O)C2	0.745 µM
COc1ccc2nc3cc(Cl)ccc3c(Nc3ccc(O)c(CN4CCCC4)c3)c2c1	6.41 µM
Nc1nc(Cl)cc(NCCCCCCNc2cc(Cl)nc(N)n2)n1	> 100 µM
COc1cc2c3cc1Oc1cc(ccc1O)C[C@@H]1c4c(cc(OC)c(O)c4Oc4ccc(cc4)C[C@@H]3[N+](C)(C)CC2)CC[N+]1(C)C	> 100 µM
Cc1cc([C@H](C)Nc2nccc(N3C(=O)OC[C@@H]3[C@H](C)F)n2)ncc1-c1ccnc(C(F)(F)F)c1	> 100 µM
Cc1cc(C)c2nccc(NCCCN(C)C)c2c1[N+](=O)[O-]	> 100 µM
O=C(O)C(O)c1ccc(F)cc1 (centres undefined)	> 100 µM
Cc1cc(Nc2cc(N3CCN(C)CC3)nc(C#Cc3ccccc3)n2)n[nH]1	59.3 µM
CC(=O)OC1Oc2cc(C)c(C)cc2-c2oc(=O)c(-c3ccccc3)cc21 (centres undefined)	0.969 µM
O=C1CCC(CCc2nc3ccccc3[nH]2)(c2ccccc2)C(=O)N1 (centres undefined)	> 100 µM
COc1ccc(-c2cn(-c3cc(OC)c(OC)c(OC)c3)c(=O)n2-c2ccccc2)cc1	> 100 µM
COC(=O)C1=C(C(=O)OC)C(C(=O)OC)C(C(=O)OC)C(C(=O)OC)(C(=O)OC)C(C(=O)OC)=C1C(=O)OC (centres undefined)	10.5 µM
CC1CCc2sc3[nH]c(=S)n(C)c(=O)c3c2C1 (centres undefined)	> 100 µM
CC[C@H](C)[C@H](NC(=O)N[C@@H](C)c1ccccc1)C(=O)N(C)[C@H](C[C@@H](OC(C)=O)c1nc(C(=O)N[C@@H](Cc2ccccc2)C[C@H](C)C(=O)OC)cs1)C(C)C	> 100 µM
CO[C@H](C)[C@](O)(C(=O)OCC1=CCN2CC[C@@H](O)[C@H]12)C(C)C	> 100 µM
COc1ccc(C2NC(=S)NC3=C2COc2ccc(F)cc23)cc1OC (centres undefined)	> 100 µM
COc1ccc2c(c1)-c1nc(=S)n(CCN(C)C)c3ccc([N+](=O)[O-])c(c13)N2	2.76 µM
Cn1c2ccccc2c2c3c(=O)[nH][nH]c(=O)c3c3c4ccccc4n(C)c3c21	> 100 µM
CCC1(Cl)C(=O)NC(=O)N(C2CC(O)C(CO)O2)C1N=[N+]=[N-] (centres undefined)	> 100 µM
CCOP(=O)(CC1OC(CO)C(O)C1O)OCC (centres undefined)	> 100 µM
COc1ccc2c(c1)c(-c1cc(-c3cn(C)c4ccc(OC)cc34)[nH]n1)cn2C	> 100 µM
O=C1[C@H]2ON(c3ccccc3)C(c3cccc([N+](=O)[O-])c3)[C@H]2C(=O)N1c1ccc(Cc2ccc(N3C(=O)[C@@H]4ON(c5ccccc5)C(c5cccc([N+](=O)[O-])c5)[C@@H]4C3=O)cc2)cc1 (some centres undefined)	> 100 µM
O/N=C/[C@H]1COC2(CCCCC2)O1	> 100 µM
C=C1C(=O)C23CC1CCC2C12CO[C@@]3(O)[C@@H](O)C1C(C)(C)C=CC2=O (some centres undefined)	21.7 µM
Cc1ccc2nc(Nc3ccccc3C)c(Nc3ccccc3C)nc2c1	> 100 µM
Fc1ccc(OCc2ccc3nc(-c4ccccc4)c(Cl)nc3c2)cc1	> 100 µM
CC(C)c1ccc2c(c1)c(SC(C)(C)C)c(CC(C)(C)C(=O)O)n2Cc1ccc(Cl)cc1	41.8 µM
O=C(O[C@@H](/C=C/c1ccccc1)P1(=O)N(Cc2ccccc2)[C@@H]2CCCC[C@H]2N1Cc1ccccc1)c1ccccc1	6.24 µM
CNc1ccc(N=Nc2cccc3ncccc23)cc1	> 65.6 µM
COc1cccc(Nc2nc3c([nH]2)c(=O)n(C)c(=O)n3C)c1	> 10 µM
CCOC(=O)OC1(c2ccccc2)CCN(C)CC1	> 100 µM
C/C(=C\CO)CC[C@@H]1[C@@]2(C)CCCC(C)(C)[C@@H]2CC[C@@]1(C)O	36.5 µM
N#Cc1c(-c2ccc(Cl)cc2)csc1NC(=O)Nc1cccc(C(F)(F)F)c1	7 µM
CCCCOP1(=O)C=CC(Cl)=C(C)C1 (centres undefined)	85.6 µM

---

GI50: recorded values
tested on: MDA-MB-435
attribute_measured: GI50

                                   compound   observed
0  CCOc1cccc(/C=N/NC(=O)Cc2ccc(Nc3ccnc(C(F)(F)F)c3)cc2)c1O    3.77 µM
1  O=C(CCl)Nc1ccc(C(=O)N/N=C/c2ccc(Cl)cc2)cc1    9.67 µM
2  COc1ccc(CNC(=O)c2ccc(-c3cc(-c4nnc(C)o4)ccc3C)cc2)cc1    10.6 µM
3  Cc1cc(C(=O)Nc2cc(Nc3ncccc3-c3ncnc4nc[nH]c34)ccc2F)cc(C(C)(C)C#N)c1   0.182 µM
4  O=C(Nc1nc2ccc(F)cc2s1)c1cccnc1Nc1ccc(Cl)cc1Cl    3.04 µM
5  COc1ccc(-c2cn(-c3cc(OC)c(OC)c(OC)c3)c(=O)n2-c2ccccc2)cc1   > 100 µM
6  N#CC1=C(N)Oc2c(sc3c(Br)cccc23)C1c1ccc(F)cc1 (stereo not given)  0.0691 µM
7  Cc1cc(S(N)(=O)=O)c(S/C(=N\NS(=O)(=O)c2ccccc2)c2ccc(Cl)c(Cl)c2)cc1Cl    42.9 µM
8  CCOC(=O)C(=Cc1c(-c2ccccc2)[nH]c2ccccc12)C(=O)OCC    3.36 µM
9   CC(=O)Nc1ccc2c(c1)CN1C(=O)c3ccccc3C1=N2   > 100 µM
